Test: binders from COS7 lysate, DM2A8 probe, primary screen, torsin A project, cell lysate, small-molecule microarray, fluorescence 635/667 (AID 1065)
Conditions: higher = more signal, COS7 lysate expressing mutant human TOR1A
Response key: TRUE means composite z-score >= 0.7; FALSE means composite z-score < 0.7.

Some entries whose results are on file:
molecule	assignedCategory
CC(C)(C)OC(=O)CC[C@]1(C(=O)N2CCCCC2)N=C(c2ccc(OCCCO)cc2)O[C@H]1c1ccccc1CN=[N+]=[N-]	TRUE
Cc1ccc(S[C@]2(C(=O)NCCN3CCOCC3)CC(=O)N(C3Cc4ccccc4C3)[C@@H]2c2ccc(CO)cc2)cc1	TRUE
COCCCNC(=O)[C@@]1(Cc2ccccc2N=[N+]=[N-])N=C(c2ccc(OCCCO)cc2)O[C@H]1c1ccccc1CN=[N+]=[N-]	FALSE
Cc1cc(C)c(C(O)C2C=CC3C(=O)N(c4ccccc4)C(=O)C3N2Nc2ccc([N+](=O)[O-])cc2)c(C)c1 (configuration not stated)	FALSE
COC(=O)[C@@]1(Cc2ccccc2N=[N+]=[N-])N=C(c2ccc(OCCCO)cc2)O[C@H]1c1ccccc1	TRUE

Can `CN(C)C(=O)[C@]1(Cc2ccccc2N=[N+]=[N-])N=C(c2ccc(OCCCO)cc2)O[C@@H]1c1ccccc1CN=[N+]=[N-]` be said to have composite z-score at or above 0.7?
TRUE

Can `COCCOC(=O)N1C(=O)[C@@]2(c3cc(C#Cc4ccc(OC)cc4)ccc31)[C@H](C(N)=O)[C@H]1C(=O)O[C@H](c3ccccc3)[C@H](c3ccccc3)N1[C@@H]2c1ccc(OCCO)cc1` be said to have composite z-score at or above 0.7?
FALSE

---

Test system: Fibrinogen (Alexa647-labelled)
Assay: Alexa647-fibrinogen binding to printed small molecules – biochemical, small-molecule microarray, 635/667 nm fluorescence, artefact control for SMM control-protein annotation, profiling panel (AID 1131);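 note: z-score merges 667 nm fluorescence with per-spot signal-to-noise over triplicate slides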
Details: fibrinogen-A647 binding fluorescence, higher = more signal
Reported composite z-score values are given for each entry in this list.

Consider the following illustrative entries.
compound	testedOn	recordedResult
C=CCOC(=O)[C@@H]1[C@H]2C(=O)O[C@H](c3ccccc3)[C@H](c3ccccc3)N2[C@H](c2ccc(OCCOC(=O)[C@@H]3C[C@@H]4C(=O)N5CCC[C@H]5C(=O)N4[C@@H]3c3cccc(OCCO)c3)cc2)[C@@]12C(=O)Nc1ccc(I)cc12	Fibrinogen (Alexa647-labelled)	0.4
O=c1c2ccc(Br)cc2nc(-c2ccccc2)n1Cc1cccc(O)c1	Fibrinogen (Alexa647-labelled)	0.671

// `Cc1ccc(S[C@]2(C(=O)NCCN3CCOCC3)CC(=O)N(C3Cc4ccccc4C3)[C@@H]2c2ccc(CO)cc2)cc1` : composite z-score value = -0.778

// `CC(C)(C)OC(=O)CC[C@]1(C(=O)O)COC(c2ccc(OCCCO)cc2)=N1` : composite z-score value = 0.68

// `C[C@@]1([C@@H](NC(=O)c2cccs2)c2ccc(-c3ccccc3)cc2)C[C@H]1C1CCCCC1` : composite z-score value = -1.76

// `COCCOC(=O)N1C(=O)[C@@]2(c3cc(C#CC4(O)CCCCCC4)ccc31)[C@H](C(=O)N1CCN(c3ncccn3)CC1)[C@H]1C(=O)O[C@H](c3ccccc3)[C@H](c3ccccc3)N1[C@@H]2c1ccc(O)cc1` : composite z-score value = 0.676

// `COc1ccc([Si](C)(C)[C@@H]2[C@@H](CCO)O[C@]3(C(=O)N(Cc4ccccc4)c4ccc(N5CCCCC5=O)cc43)[C@H]2C)cc1` : composite z-score value = 0.734

// C[C@]12C(=O)N(CCCCCO)[C@@H]3C(=O)N(c4ccc(Cl)cc4)CC=CC31O[C@@H]1/C=C\CCCOC(=O)C12 (some centres undefined) : composite z-score value = -1.47

// `O=C(N1CCOCC1)[C@@]1(CCS(=O)(=O)c2ccccc2)COC(c2ccc(OCCCO)cc2)=N1` : composite z-score value = -0.71

// `COCCCNC(=O)[C@@]1(Cc2ccccc2)COC(c2ccc(OCCCO)cc2)=N1` : composite z-score value = 1

// O=C1NC(=O)C2C1C=CC(C(O)c1ccc(-c3ccccc3)s1)N2Nc1ccccn1 (centres undefined) : composite z-score value = 0.347

// `CC(C)[Si](C#C[Si](C(C)C)(C(C)C)C(C)C)(O[C@H](C)c1cn(Cc2cccc(Cl)c2)nn1)C(C)C` : composite z-score value = 0.715

// C=CCC(OC(C)=O)[C@@H]1[C@@H](N(Cc2ccc(-c3ccccc3)cc2)C(=O)c2cccc3ccccc23)c2cc(OCCCO)ccc2N1C(=O)c1ccc2ccccc2n1 (some centres undefined) : composite z-score value = -0.0282

// `CC(C)C[C@@H]1NC(=O)[C@@H]2C[C@H](C(=O)NCCCC[N+](C)(C)C)[C@H](c3cccc(OCCO)c3)N2C1=O` : composite z-score value = -0.173

---

Test: probe aCHRDL2 binding to arrayed compounds – biochemical, biotinylated probe, 635/667 nm fluorescence, primary screen (AID 1100)
Settings: small-molecule microarray, higher = more signal
Reported composite z-score values are given for each entry in this list.
Enter a number only.

Consider the following illustrative entries.
compound	recordedResult
Cc1ccc(N2C(=O)c3ccccc3[C@](C)(C(=O)NC(C)C)[C@@H]2c2ccc(CO)cc2)nc1	1.04
CN(C)C(=O)[C@@]1(Cc2ccccc2N=[N+]=[N-])N=C(c2ccc(OCCCO)cc2)O[C@H]1c1ccccc1N=[N+]=[N-]	0.7
COC(=O)[C@@]1(Cc2ccc(OC)cc2)[C@H]2c3cc(C(=O)N4CCCC4)n(CCF)c3C[C@H]2CN1C(=O)c1ccccc1	1.56
O=C1O[C@H](c2ccccc2)[C@H](c2ccccc2)N2[C@H]1[C@@H](C(=O)N1CCCCCCC1)[C@]1(C(=O)Nc3ccc(C#CCCO)cc31)[C@H]2c1ccc(OCCO)cc1	1.42
NC(=O)NCC#Cc1ccc2c(c1)[C@]1(C(=O)N2)[C@H](c2ccc(OCCO)cc2)N2[C@H](c3ccccc3)[C@H](c3ccccc3)OC(=O)[C@H]2[C@@H]1C(=O)N1CCCCCCC1	1.17

// CC(C)CCC[C@@H](C)[C@H]1CC[C@@]2(C)C3=C(CC[C@]12C)[C@@]1(C)CC[C@H](OC(=O)c2ccc(N)cc2)C(C)(C)C1CC3 (some centres undefined) : composite z-score value = -0.761

// `CCC[C@@H]1C[C@@]1(CCC)[C@@H](NC(=O)c1ccco1)c1ccc(Cl)cc1` : composite z-score value = 0.762

// `O=C1O[C@H](c2ccccc2)[C@H](c2ccccc2)N2[C@H]1[C@@H](C(=O)N1CCCCCCC1)[C@]1(C(=O)Nc3ccccc31)[C@H]2c1ccc(O)cc1` : composite z-score value = 1.79

// `COc1ccc(C#Cc2ccc3c(c2)[C@]2(C(=O)N3)[C@H](C(N)=O)[C@H]3C(=O)O[C@H](c4ccccc4)[C@H](c4ccccc4)N3[C@@H]2c2ccc(O)cc2)cc1` : composite z-score value = 0.411

// `O=[N+]([O-])c1ccc(C[n+]2ccc(-c3ccc(CO)cc3)cc2)o1` : composite z-score value = 0.192

// `COC(=O)C(CC#Cc1ccc2c(c1)[C@]1(C(=O)N2)[C@H](C(=O)N2CCc3cc(OC)c(OC)cc3C2)[C@H]2C(=O)O[C@H](c3ccccc3)[C@H](c3ccccc3)N2[C@@H]1c1ccc(O)cc1)C(=O)OC` : composite z-score value = 0.417

---

Reported composite z-score values are given for each entry in this list.
Molecular target: Focal adhesion kinase 1 (Homo sapiens) (UniProt Q05397)
Sequence (Q05397 whole entry, looked up): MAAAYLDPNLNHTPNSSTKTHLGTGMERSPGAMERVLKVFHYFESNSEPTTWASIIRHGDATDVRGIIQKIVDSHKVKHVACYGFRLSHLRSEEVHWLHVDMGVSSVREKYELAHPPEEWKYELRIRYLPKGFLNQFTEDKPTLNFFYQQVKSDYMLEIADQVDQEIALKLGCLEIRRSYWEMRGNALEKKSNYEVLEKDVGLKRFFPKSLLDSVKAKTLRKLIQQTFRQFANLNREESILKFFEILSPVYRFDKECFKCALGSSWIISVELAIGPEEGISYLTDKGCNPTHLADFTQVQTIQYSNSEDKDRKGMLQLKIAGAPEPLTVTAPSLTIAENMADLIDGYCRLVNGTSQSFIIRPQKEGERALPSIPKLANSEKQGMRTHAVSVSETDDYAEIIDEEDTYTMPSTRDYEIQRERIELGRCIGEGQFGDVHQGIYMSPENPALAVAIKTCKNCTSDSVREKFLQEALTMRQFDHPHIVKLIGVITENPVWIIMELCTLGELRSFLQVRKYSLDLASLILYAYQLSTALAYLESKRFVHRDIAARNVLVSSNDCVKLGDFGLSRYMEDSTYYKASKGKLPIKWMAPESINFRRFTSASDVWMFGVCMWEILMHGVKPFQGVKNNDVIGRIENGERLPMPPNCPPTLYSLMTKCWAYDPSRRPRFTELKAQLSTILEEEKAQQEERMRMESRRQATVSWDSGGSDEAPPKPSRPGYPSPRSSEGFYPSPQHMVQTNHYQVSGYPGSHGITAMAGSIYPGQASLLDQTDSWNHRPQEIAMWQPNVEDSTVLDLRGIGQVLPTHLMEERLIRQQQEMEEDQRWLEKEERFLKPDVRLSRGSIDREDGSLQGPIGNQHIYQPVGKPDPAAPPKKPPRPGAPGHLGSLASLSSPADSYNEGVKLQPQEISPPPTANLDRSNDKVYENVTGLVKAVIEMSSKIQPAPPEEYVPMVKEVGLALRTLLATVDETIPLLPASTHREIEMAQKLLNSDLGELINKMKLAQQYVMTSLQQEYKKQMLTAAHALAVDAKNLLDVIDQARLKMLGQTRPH
Assay: PTK2 protein binding on printed compound slides – biochemical, small-molecule microarray, 635/667 nm fluorescence, BSA, DTT, primary screen (AID 1130);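 note: composite of spot emission at 667 nm and signal to noise over triplicate slides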
Details: 635 nm fluorescence, higher = more signal

Consider the following illustrative entries.
molecule	composite z-score
COCCOC(=O)N1C(=O)[C@@]2(c3cc(C#CCNC(N)=O)ccc31)[C@H](c1ccc(OCCO)cc1)N1[C@H](c3ccccc3)[C@H](c3ccccc3)OC(=O)[C@H]1[C@@H]2C(=O)N1CCN(c2ncccn2)CC1	1.58
COCCOC(=O)N1C(=O)[C@@]2(c3cc(C#CCNC(N)=O)ccc31)[C@H](C(N)=O)[C@H]1C(=O)O[C@H](c3ccccc3)[C@H](c3ccccc3)N1[C@@H]2c1ccc(OCCO)cc1	0.199
COC(=O)c1ccc(OC)c(/C=C\CC(CCc2ccccc2)OC(C)=O)c1 (configuration not stated)	0.377
CC1CC/C=C\[C@H]2OC34C=CCN(c5ccc(Cl)cc5)C(=O)[C@H]3N(C(CO)C(C)C)C(=O)[C@]4(C)C2C(=O)O1 (some centres not stated)	-0.432
COC(=O)[C@]1(Cc2ccccc2CN=[N+]=[N-])N=C(c2ccc(OCCCO)cc2)O[C@@H]1c1ccccc1	-0.435

// `COC(=O)[C@H]1N=C(c2ccc(OCCCO)cc2)O[C@H]1c1ccccc1CN=[N+]=[N-]` : composite z-score value = 0.605

// CC(C)CCC[C@@H](C)[C@H]1CC[C@@]2(C)C3=C(CC[C@]12C)[C@@]1(C)CC[C@H](OC(=O)C(C)(C)C)C(C)(C)C1CC3 (some centres not stated) : composite z-score value = 0.0226
